From: ChEMBL document CHEMBL2331107

test system: Bacillus subtilis; assay: Antimicrobial activity against Bacillus subtilis ATCC 6633 measured after 24 hrs at 37 degC; assay type: functional; conditions: ATCC 6633, 24 h

Compound: O=C(NCC(O)C[n+]1cccc(CC(O)(P(=O)(O)O)P(=O)(O)O)c1)c1cc2ccccc2oc1=O (centres undefined)
MIC: > 128 µg/mL
--
Compound: O=C(NCC(O)C[n+]1cccc(CC(O)(P(=O)(O)O)P(=O)(O)O)c1)c1ccccc1O (centres undefined)
MIC: > 128 µg/mL
--
Compound: O=C(NCC(O)C[n+]1cccc(CC(O)(P(=O)(O)O)P(=O)(O)O)c1)c1ccccc1 (centres undefined)
MIC: > 128 µg/mL
--
Compound: O=C(NCC(O)C[n+]1cccc(CC(O)(P(=O)(O)O)P(=O)(O)O)c1)c1cc2c(ccc3ccccc32)oc1=O (centres undefined)
MIC: > 128 µg/mL
